Value source: ChEMBL document CHEMBL1268875

# Test system: HCT-116
# experimentNotes: Inhibition of TNF-alpha-induced Nuclear factor-kappa-B dependent transcriptional activity in human HCT116 cells assessed normalized inhibitory ratio of at 10 uM for 12 hrs by NF-kappaB cis-acting luciferase reporter gene assay relative to untreated control
# Type: cell-based
valueKind: Ratio
Enter the number alone.

Lookup result for "COc1ccc2c(=O)c(-c3ccc(Cl)cc3)coc2c1C" ; measured Ratio: 0.63

Noted for "O=c1c(-c2ccc(O)cc2)coc2c(O)c(O)ccc12" : its Ratio reads 1.22

# compound "COc1cc(OC)c2c(=O)c(-c3ccccc3Cl)coc2c1" ; its Ratio = 0.54

The value of Ratio measured for the compound "COc1cc2occ(-c3ccccc3Cl)c(=O)c2cc1Cl" turned out to be 0.54

Query "COc1cc(OC)c2c(=O)c(-c3ccc(OC)c(OC)c3)coc2c1" yields Ratio of 0.19

compound "COc1ccc2c(=O)c(-c3ccccc3)coc2c1" , Ratio observed: 0.36

Consider "COc1ccc(-c2coc3c(OC)c(OC)ccc3c2=O)cc1" . Its measured Ratio is 0.95

The value of Ratio measured for the compound "COc1ccc(-c2coc3cc(OC)c(Cl)cc3c2=O)cc1O" turned out to be 0.54

Just so you know, measured Ratio for "COc1cc(OC)c2c(=O)c(-c3ccc(Cl)cc3)coc2c1" came out at 0.61

Entry under test: "COc1ccc(-c2coc3cc(O)c(OC)cc3c2=O)cc1" . Its Ratio was 2.37

get_value(item= "Cc1cc2occ(-c3ccccc3)c(=O)c2cc1Cl" , readout=Ratio) returns 0.32

For this compound ( "COc1ccc(-c2coc3c(C)c(OC)ccc3c2=O)cc1" ), measured Ratio is 0.62
